// provenance: patent US9051311B2

Below, each entry is listed with its recorded IC50.
- system.under.test: UniProt Q14524
- Sequence (Q14524 whole entry): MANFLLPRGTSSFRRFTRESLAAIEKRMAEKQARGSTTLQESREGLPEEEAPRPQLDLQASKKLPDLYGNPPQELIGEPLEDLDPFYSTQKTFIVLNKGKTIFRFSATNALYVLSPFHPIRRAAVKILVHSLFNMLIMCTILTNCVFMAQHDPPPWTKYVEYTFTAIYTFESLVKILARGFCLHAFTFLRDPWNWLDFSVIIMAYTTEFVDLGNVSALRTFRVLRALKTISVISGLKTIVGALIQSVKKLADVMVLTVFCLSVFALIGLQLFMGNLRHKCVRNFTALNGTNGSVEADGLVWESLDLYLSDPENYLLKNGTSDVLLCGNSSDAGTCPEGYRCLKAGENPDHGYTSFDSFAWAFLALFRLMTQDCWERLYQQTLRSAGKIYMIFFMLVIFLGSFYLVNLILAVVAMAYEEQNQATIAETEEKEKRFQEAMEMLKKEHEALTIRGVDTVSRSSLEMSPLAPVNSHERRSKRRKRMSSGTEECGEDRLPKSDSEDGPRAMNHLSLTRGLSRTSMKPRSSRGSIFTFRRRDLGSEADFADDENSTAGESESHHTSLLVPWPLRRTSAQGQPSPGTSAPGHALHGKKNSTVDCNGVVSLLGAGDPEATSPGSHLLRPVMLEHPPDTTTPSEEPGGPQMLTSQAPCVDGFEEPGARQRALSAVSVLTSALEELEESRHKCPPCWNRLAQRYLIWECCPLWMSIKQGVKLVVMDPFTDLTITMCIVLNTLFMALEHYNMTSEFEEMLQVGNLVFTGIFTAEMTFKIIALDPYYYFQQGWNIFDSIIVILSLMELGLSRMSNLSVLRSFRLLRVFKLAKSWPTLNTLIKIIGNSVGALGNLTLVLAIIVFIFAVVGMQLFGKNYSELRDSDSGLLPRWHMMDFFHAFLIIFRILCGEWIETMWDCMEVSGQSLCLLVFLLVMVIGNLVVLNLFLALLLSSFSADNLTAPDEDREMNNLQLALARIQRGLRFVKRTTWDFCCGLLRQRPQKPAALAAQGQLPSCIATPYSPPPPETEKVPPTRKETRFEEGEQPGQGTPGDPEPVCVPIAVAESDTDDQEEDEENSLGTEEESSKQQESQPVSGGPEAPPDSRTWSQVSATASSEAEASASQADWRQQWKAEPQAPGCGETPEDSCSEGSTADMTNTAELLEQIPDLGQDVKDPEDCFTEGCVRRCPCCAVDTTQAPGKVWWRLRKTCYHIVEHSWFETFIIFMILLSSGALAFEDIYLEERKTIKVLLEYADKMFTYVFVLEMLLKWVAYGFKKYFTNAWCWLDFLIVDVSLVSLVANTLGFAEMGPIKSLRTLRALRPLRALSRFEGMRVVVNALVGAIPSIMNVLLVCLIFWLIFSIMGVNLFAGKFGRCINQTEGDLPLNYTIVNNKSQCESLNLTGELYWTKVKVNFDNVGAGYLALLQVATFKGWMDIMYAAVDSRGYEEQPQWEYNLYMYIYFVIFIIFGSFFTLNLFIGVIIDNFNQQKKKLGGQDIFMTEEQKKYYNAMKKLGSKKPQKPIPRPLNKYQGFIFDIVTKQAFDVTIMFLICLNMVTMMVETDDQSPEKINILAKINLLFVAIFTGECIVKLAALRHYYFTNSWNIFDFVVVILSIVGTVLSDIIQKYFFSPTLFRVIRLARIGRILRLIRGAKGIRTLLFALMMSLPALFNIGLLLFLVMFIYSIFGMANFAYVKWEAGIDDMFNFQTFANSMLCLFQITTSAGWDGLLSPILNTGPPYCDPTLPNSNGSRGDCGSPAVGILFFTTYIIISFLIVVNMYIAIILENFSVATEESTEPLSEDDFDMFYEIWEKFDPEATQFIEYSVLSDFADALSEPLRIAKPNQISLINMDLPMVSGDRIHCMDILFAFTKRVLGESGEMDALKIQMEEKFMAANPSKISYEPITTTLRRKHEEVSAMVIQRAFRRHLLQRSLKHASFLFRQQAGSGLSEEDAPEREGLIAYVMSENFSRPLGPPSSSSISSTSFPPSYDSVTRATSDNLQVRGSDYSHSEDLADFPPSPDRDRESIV
- assay.details: Nav 1.5 IonWorks Quattro (IWQ) in vitro assay, population patch-clamp;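 further: HEK293 cells stably expressing Nav1.5, sodium current at the 26th of 26 pulses to −20 mV (150 ms, 5 Hz) after compound versus before, leak-corrected, 3–8 min exposure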
- test.conditions: read-out: Nav 1.5 (IWQ) IC50; 293 cells stably transfected with Nav 1.5; block at 26th pulse to −20 mV
Where a name gives a salt, the structure may show the parent alone.

{"columns": ["molecule", "system.under.test", "IC50"],
 "data": [
  ["O=S(=O)(Nc1ncns1)N1CCc2c(cccc2-c2ccc(Cl)cc2F)C1", "UniProt Q14524", "> 10 µM"],
  ["O=S(=O)(Nc1ncns1)N1CCc2c(cccc2-c2ccc(C(F)(F)F)cc2C2=CCNCC2)C1 [Example 6, hydrochloride]", "UniProt Q14524", "> 10 µM"],
  ["CC(C)(C)OC(=O)N1CC=C(c2cc(C(F)(F)F)ccc2-c2cccc3c2CCN(S(=O)(=O)Nc2ncns2)C3)CC1", "UniProt Q14524", "5.63 µM"],
  ["O=S(=O)(Nc1cnccn1)N1CCc2c(cccc2-c2ccc(C(F)(F)F)cc2C2=CCNCC2)C1 [Example 53, hydrochloride]", "UniProt Q14524", "> 10 µM"]
]}

* * *

- system.under.test: Nav 1.7 (Homo sapiens (Human))
- assay.details: Nav 1.7 IonWorks Quattro (IWQ) in vitro assay, population patch-clamp;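 further: cells held at −110 mV for 3 s, then 26 pulses of 150 ms at 5 Hz, leak-corrected peak current, percent block measured before and after compound, 3–8 min exposure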
- Format: cell-based
- test.conditions: 293 cells stably transfected with Nav 1.7; block at 26th pulse to −20 mV
pIC50: −log10 of the molar value. Where a name gives a salt, the structure may show the parent alone.
attribute.measured: pIC50

{"columns": ["compound", "attribute.measured", "meas.value"],
 "data": [
  ["O=S(=O)(Nc1ncns1)N1CCc2c(cccc2-c2ccc(C(F)(F)F)cc2C2=CCNC2)C1 [Example 34, hydrochloride]", "pIC50", 7.19],
  ["O=S(=O)(Nc1ncns1)N1CCc2c(cccc2-c2ccc(Cl)cc2F)C1", "pIC50", 5.37],
  ["O=S(=O)(Nc1nccs1)N1CCc2c(cccc2-c2ccc(C(F)(F)F)cc2C2=CCNCC2)C1 [Example 36, hydrochloride]", "pIC50", 5.72],
  ["COc1cc(C(F)(F)F)ccc1-c1nccc2c1CCN(S(=O)(=O)Nc1ncns1)C2", "pIC50", 7.72],
  ["O=S(=O)(Nc1ccncn1)N1CCc2c(cccc2-c2ccc(C(F)(F)F)cc2C2=CCNCC2)C1", "pIC50", 5.40],
  ["CC(C)(C)OC(=O)N1CCc2c(cccc2-c2cccc3c2CCN(S(=O)(=O)Nc2ncns2)C3)C1", "pIC50", 4.80],
  ["Cn1nccc1-c1cc(C(F)(F)F)ccc1-c1cccc2c1CCN(S(=O)(=O)Nc1ncccn1)C2", "pIC50", 4.90],
  ["COc1cc(C(F)(F)F)ccc1-c1ncnc2c1CCN(S(=O)(=O)Nc1nccs1)C2", "pIC50", 7.06]
]}

* * *

Below, each entry is listed with its recorded pIC50.
- system.under.test: UniProt Q15858
- assay.details: Nav 1.7 in vitro PatchExpress (PX) assay, whole cell voltage clamp
- Assay type: cell-based
- test.conditions: 293 cells stably transfected with human Nav1.7; partially inactivated state (20 to 50% inactivation)
pIC50: −log10 of the molar value. Structures can show the parent of a compound that is named as a salt.

{"columns": ["molecule", "readout.qualifier", "pIC50"],
 "data": [
  ["COc1cccc(OC)c1-c1cccc2c1CCN(S(=O)(=O)Nc1ncns1)C2", "<", 4.52],
  ["O=S(=O)(Nc1ccncn1)N1CCc2c(cccc2-c2ccc(C(F)(F)F)cc2C2=CCNCC2)C1", "=", 4.72],
  ["O=S(=O)(Nc1ncns1)N1CCc2c(cccc2-c2ccc(Cl)cc2F)C1", "=", 5.12],
  ["O=S(=O)(Nc1ncns1)N1CCc2c(cccc2-c2cccc3c2CCNC3)C1 [Example 13, hydrochloride]", "<", 4.52],
  ["O=S(=O)(Nc1ncns1)N1CCc2c(cccc2-c2ccc(C(F)(F)F)cc2)C1", "=", 5.24],
  ["COc1cc(F)ccc1-c1cccc2c1CCN(S(=O)(=O)Nc1ncns1)C2", "=", 6.25],
  ["CN1CCN(c2cc(C(F)(F)F)ccc2-c2cccc3c2CCN(S(=O)(=O)Nc2ncc(F)s2)C3)CC1", "=", 5.13],
  ["O=S(=O)(Nc1ncns1)N1CCc2c(cccc2-c2ccc(C(F)(F)F)cc2C2=CCNCC2)C1 [Example 6, hydrochloride]", "=", 7.52]
]}

* * *

- system.under.test: Nav 1.7 (Homo sapiens (Human))
- assay.details: Nav 1.7 in vitro PatchExpress (PX) assay, whole cell voltage clamp
- Format: cell-based
- test.conditions: 293 cells stably transfected with human Nav1.7; partially inactivated state (20 to 50% inactivation)
Counter-ions that a name gives are not always drawn.

{"columns": ["molecule", "IC50 [µM]"],
 "data": [
  ["COc1ccc(OC)c(-c2cccc3c2CCN(S(=O)(=O)Nc2ncns2)C3)c1 [Example 27]", 0.67],
  ["COc1cc(C(F)(F)F)ccc1-c1nccc2c1CCN(S(=O)(=O)Nc1ncns1)C2 [Example 46]", 0.94],
  ["O=S(=O)(Nc1ncns1)N1CCc2c(cccc2-c2ccc(C(F)(F)F)cc2-n2ccnc2)C1 [Example 32]", 0.22],
  ["Nc1cc(-c2cc(C(F)(F)F)ccc2-c2cccc3c2CCN(S(=O)(=O)Nc2ncns2)C3)ccn1 [Example 18]", 0.07],
  ["O=S(=O)(Nc1ncc(F)s1)N1CCc2c(cccc2-c2ccc(C(F)(F)F)cc2-n2ccnc2)C1 [Example 38]", 0.69],
  ["CC(C)(C)OC(=O)N1CC=C(c2cc(C(F)(F)F)ccc2-c2cccc3c2CCN(S(=O)(=O)Nc2ncns2)C3)CC1 [Example 5]", 1.7],
  ["O=S(=O)(Nc1ncns1)N1CCc2c(cccc2-c2ccc(C(F)(F)F)cc2C2=CCNC2)C1 [Example 34, hydrochloride]", 0.05],
  ["Cc1cn(-c2cc(C(F)(F)F)ccc2-c2cccc3c2CCN(S(=O)(=O)Nc2ncc(F)s2)C3)cn1 [Example 42]", 1.34]
]}

* * *

Below, each entry is listed with its recorded IC50.
- system.under.test: Nav 1.7 (Homo sapiens (Human), UniProt Q15858)
- Sequence (Q15858 whole entry): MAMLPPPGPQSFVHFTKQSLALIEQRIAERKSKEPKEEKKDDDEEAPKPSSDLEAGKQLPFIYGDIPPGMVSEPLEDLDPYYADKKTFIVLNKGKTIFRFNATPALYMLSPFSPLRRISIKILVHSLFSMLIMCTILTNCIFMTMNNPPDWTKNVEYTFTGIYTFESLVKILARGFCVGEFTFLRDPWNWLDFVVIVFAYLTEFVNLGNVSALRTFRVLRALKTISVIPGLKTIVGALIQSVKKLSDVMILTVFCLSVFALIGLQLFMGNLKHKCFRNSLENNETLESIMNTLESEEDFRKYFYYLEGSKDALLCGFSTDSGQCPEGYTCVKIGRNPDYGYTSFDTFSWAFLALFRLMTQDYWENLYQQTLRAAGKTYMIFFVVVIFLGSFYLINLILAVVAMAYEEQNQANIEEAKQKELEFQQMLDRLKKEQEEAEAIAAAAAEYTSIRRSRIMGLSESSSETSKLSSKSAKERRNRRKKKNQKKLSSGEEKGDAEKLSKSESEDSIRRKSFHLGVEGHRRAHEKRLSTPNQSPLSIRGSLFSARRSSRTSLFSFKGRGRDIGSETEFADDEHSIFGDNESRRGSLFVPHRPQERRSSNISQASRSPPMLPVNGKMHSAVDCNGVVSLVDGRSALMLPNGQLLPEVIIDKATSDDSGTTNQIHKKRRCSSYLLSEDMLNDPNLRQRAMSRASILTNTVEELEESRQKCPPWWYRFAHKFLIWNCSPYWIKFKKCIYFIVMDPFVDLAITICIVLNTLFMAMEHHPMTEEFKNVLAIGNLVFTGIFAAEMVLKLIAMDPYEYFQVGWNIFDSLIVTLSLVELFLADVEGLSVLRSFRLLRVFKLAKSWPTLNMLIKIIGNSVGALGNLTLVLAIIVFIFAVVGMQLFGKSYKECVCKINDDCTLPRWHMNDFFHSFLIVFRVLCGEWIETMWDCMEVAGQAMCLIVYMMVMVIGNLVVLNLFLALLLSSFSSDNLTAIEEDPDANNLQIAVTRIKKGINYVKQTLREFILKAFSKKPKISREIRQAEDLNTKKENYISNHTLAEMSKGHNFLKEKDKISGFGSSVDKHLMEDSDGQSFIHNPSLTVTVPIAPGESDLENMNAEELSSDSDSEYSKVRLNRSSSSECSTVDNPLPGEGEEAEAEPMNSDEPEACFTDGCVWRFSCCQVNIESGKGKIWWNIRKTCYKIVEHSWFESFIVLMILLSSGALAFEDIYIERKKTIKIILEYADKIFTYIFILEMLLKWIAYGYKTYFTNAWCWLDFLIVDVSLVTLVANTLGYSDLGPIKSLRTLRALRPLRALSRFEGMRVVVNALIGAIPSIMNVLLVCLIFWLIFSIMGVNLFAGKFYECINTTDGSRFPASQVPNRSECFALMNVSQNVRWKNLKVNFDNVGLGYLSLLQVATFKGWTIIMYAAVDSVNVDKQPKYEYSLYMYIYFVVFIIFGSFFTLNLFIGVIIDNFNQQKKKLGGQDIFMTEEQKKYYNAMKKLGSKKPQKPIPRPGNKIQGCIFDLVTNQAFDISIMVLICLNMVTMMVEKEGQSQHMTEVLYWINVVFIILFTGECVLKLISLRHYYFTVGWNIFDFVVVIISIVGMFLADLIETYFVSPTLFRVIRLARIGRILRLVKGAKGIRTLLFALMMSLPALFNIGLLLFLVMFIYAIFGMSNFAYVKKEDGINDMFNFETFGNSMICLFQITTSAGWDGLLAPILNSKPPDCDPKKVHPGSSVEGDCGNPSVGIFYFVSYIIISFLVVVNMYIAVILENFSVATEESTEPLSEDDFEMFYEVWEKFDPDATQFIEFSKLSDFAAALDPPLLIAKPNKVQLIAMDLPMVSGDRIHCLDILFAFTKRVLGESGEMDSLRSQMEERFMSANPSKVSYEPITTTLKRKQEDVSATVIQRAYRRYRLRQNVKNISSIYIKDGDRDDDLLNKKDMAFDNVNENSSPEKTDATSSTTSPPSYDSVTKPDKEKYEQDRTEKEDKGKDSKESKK
- assay.details: Nav 1.7 in vitro PatchExpress (PX) assay, whole cell voltage clamp
- Type: cell-based
- test.conditions: 293 cells stably transfected with human Nav1.7; partially inactivated state (20 to 50% inactivation)
Where a name gives a salt, the structure may show the parent alone.

{"columns": ["compound", "IC50 [nM]"],
 "data": [
  ["COc1cc(C(F)(F)F)ccc1-c1ncnc2c1CCN(S(=O)(=O)Nc1nccs1)C2 [Example 59]", 1050],
  ["CN1CC=C(c2ccc(C(F)(F)F)cc2-c2cccc3c2CCN(S(=O)(=O)Nc2ncc(F)s2)C3)CC1 [Example 40]", 12100],
  ["O=S(=O)(Nc1ncc(F)s1)N1CCc2c(cccc2-c2ccc(C(F)(F)F)cc2C2CCNCC2)C1 [Example 35, hydrochloride]", 170],
  ["COc1cc(C(F)(F)F)ccc1-c1ncnc2c1CCN(S(=O)(=O)Nc1ncc(F)s1)C2 [Example 60]", 810],
  ["CC(C)(C)OC(=O)N1CCc2c(cccc2-c2cccc3c2CCN(S(=O)(=O)Nc2ncns2)C3)C1 [Example 58]", 16500],
  ["COc1ccc(-c2cccc3c2CCN(S(=O)(=O)Nc2ncns2)C3)c(OC)c1 [Example 26]", 2200]
]}

* * *

- system.under.test: Nav 1.7 (Homo sapiens (Human))
- assay.details: Nav 1.7 in vitro PatchExpress (PX) assay, whole cell voltage clamp
- Format: cell-based
- test.conditions: 293 cells stably transfected with human Nav1.7; partially inactivated state (20 to 50% inactivation)
pIC50: −log10 of the molar value. Structures can show the parent of a compound that is named as a salt.
Lab note: compare pIC50 against 6. Equal or greater, write 1. Smaller, write -1.

{"columns": ["compound", "class.assignment"],
 "data": [
  ["COc1cc(C(F)(F)F)ccc1-c1ccnc2c1CCN(S(=O)(=O)Nc1ccncn1)C2 [Example 64]", -1],
  ["O=S(=O)(Nc1ncc(F)s1)N1CCc2c(cccc2-c2ccc(C(F)(F)F)cc2C2=CCNCC2)C1 [Example 33, hydrochloride]", 1],
  ["COc1cc(-c2ccc(F)c(F)c2)ccc1-c1cccc2c1CCN(S(=O)(=O)Nc1nncs1)C2 [Example 62]", -1],
  ["O=S(=O)(Nc1ncns1)N1CCc2c(cccc2-c2ccc(C(F)(F)F)cc2C2=CCOCC2)C1 [Example 19]", -1],
  ["COc1cc(C2CC2)ccc1-c1nccc2c1CCN(S(=O)(=O)Nc1ncns1)C2 [Example 47]", 1],
  ["COc1cc(C(F)(F)F)ccc1-c1cccc2c1C(C)CN(S(=O)(=O)Nc1ncns1)C2 (racemic) [Example 48]", -1],
  ["O=S(=O)(Nc1ncns1)N1CCc2c(cccc2-c2ccc(C(F)(F)F)cc2Cl)C1 [Example 9]", 1],
  ["CN1CC=C(c2cc(C(F)(F)F)ccc2-c2cccc3c2CCN(S(=O)(=O)Nc2ncns2)C3)CC1 [Example 15]", 1],
  ["O=S(=O)(Nc1ncns1)N1CCc2c(cccc2-c2ccc(C(F)(F)F)cc2-c2cn[nH]c2)C1 [Example 17]", 1],
  ["Cn1nccc1-c1cc(C(F)(F)F)ccc1-c1cccc2c1CCN(S(=O)(=O)Nc1ncns1)C2 [Example 1]", 1],
  ["O=S(=O)(Nc1nccs1)N1CCc2c(cccc2-c2ccc(C(F)(F)F)cc2C2=CCNCC2)C1 [Example 36, hydrochloride]", -1],
  ["O=S(=O)(Nc1ncns1)N1CCc2c(cccc2-c2ccc(C(F)(F)F)cc2-c2cccnc2)C1 [Example 22]", 1],
  ["O=S(=O)(Nc1ncns1)N1CCc2c(cccc2-c2ccc(C(F)(F)F)cc2-c2ccncc2)C1 [Example 2]", 1]
]}
